Molecular target: Voltage-gated L-type calcium channel (Rattus norvegicus, UniProt P22002+Q02485+P27732)
Assay: Percentage decrease in blood pressure at a dose of 135 uM/kg for 6-12 hr in spontaneously hypertensive rats.
Type: functional, tissue-based
Classify on Decrease in blood pressure using low interval (below 10%), middle interval (10% to below 20%), high interval (20% or more)

{"compound": "COc1ccc([C@@H]2Cc3c(ccc(Br)c3OC)N(CCN(C)C)C(=O)[C@@H]2OC(C)=O)cc1", "label class": "middle interval"}
{"compound": "COc1ccc([C@@H]2Cc3cc(C(F)(F)F)ccc3N(CCN(C)C)C(=O)[C@@H]2NC(C)=O)cc1", "label class": "middle interval"}
{"compound": "CNC(=O)CN1C(=O)[C@H](OC(C)=O)[C@H](c2ccc(OC)cc2)Cc2c1cccc2C(F)(F)F", "label class": "low interval"}
{"compound": "COc1ccc([C@@H]2Cc3cc(C(F)(F)F)ccc3N(CCN(C)C)C(=O)[C@@H]2CC(C)=O)cc1", "label class": "high interval"}
{"compound": "COc1ccc([C@@H]2Cc3cc(C(F)(F)F)ccc3N(CCN(C)C)C(=O)[C@@H]2SC(C)=O)cc1", "label class": "middle interval"}

*Q* Assign a category based on measured Decrease in blood pressure for COc1ccc([C@@H]2Cc3c(cccc3C(F)(F)F)N(C(C)CN(C)C)C(=O)[C@@H]2C)cc1 (stereo in doubt; 15o) and give only the class name.
*A* middle interval

====

Reported logP values for the following compounds.
Assay: Partition coefficient (logP)
Type: physicochemical
Settings: octanol/water

Before answering, review these 6 worked examples.
{"compound structure string": "COc1ccc([C@@H]2Cc3c(ccc(Br)c3OC)N(CCN(C)C)C(=O)[C@@H]2OC(C)=O)cc1", "logP": 2.4}
{"compound structure string": "COc1ccc([C@@H]2Cc3c(Cl)cccc3N(CCN(C)C)C(=O)[C@@H]2OC(C)=O)cc1", "logP": 2.4}
{"compound structure string": "COc1ccc([C@@H]2Cc3cc(OC(F)F)ccc3N(CCN(C)C)C(=O)[C@@H]2OC(C)=O)cc1", "logP": 1.8}
{"compound structure string": "COc1ccc([C@@H]2Cc3c(OC)cccc3N(CCN(C)C)C(=O)[C@@H]2OC(C)=O)cc1", "logP": 1.9}
{"compound structure string": "COc1ccc([C@@H]2Cc3c(C#N)cccc3N(CCN(C)C)C(=O)[C@@H]2OC(C)=O)cc1", "logP": 1.3}
{"compound structure string": "COc1ccc([C@@H]2Cc3cc(C(F)(F)F)ccc3N(CCN(C)C)C(=O)[C@@H]2OC(C)=O)cc1", "logP": 2.8}

*Q* # input compound: C=CC[C@H]1C(=O)N(CCN(C)C)c2cccc(C(F)(F)F)c2C[C@H]1c1ccc(OC)cc1 ; wanted: its logP
*A* 4.6

*Q* What would you report for COc1ccc([C@@H]2Cc3c(ccc(Br)c3OC)N(CCN(C)C)C(=O)[C@@H]2C)cc1 ?
*A* 3.4

*Q* Next entry: COc1ccc([C@@H]2Cc3cc(OC(=O)C(C)(C)C)ccc3N(CCN(C)C)C(=O)[C@@H]2OC(C)=O)cc1
*A* 2.9

====

molecules and their reported logP
Assay: Partition coefficient (logP)
Format: physicochemical
Details: octanol/water
Response field accepts a number only; no unit should be typed.

Here is how some molecules turned out for logP.
{"compound structure string": "COc1ccc([C@@H]2Cc3cc(Cl)ccc3N(CCN(C)C)C(=O)[C@@H]2OC(C)=O)cc1", "logP": 2.2}
{"compound structure string": "COc1ccc([C@@H]2Cc3ccccc3N(CCN(C)C)C(=O)[C@@H]2C)cc1", "logP": 2.5}
{"compound structure string": "COc1ccc([C@@H]2Cc3c(OC)cccc3N(CCN(C)C)C(=O)[C@@H]2C)cc1", "logP": 2.6}
{"compound structure string": "COc1ccc([C@@H]2Cc3c(C(=O)OCc4ccccc4)cccc3N(CCN(C)C)C(=O)[C@@H]2OC(C)=O)cc1", "logP": 3.3}
{"compound structure string": "COc1ccc([C@H]2CC(=O)N(CCN(C)C)c3cccc(C(F)(F)F)c3C2)cc1", "logP": 3.1}
{"compound structure string": "COc1ccc([C@@H]2Cc3cc(C(F)(F)F)ccc3N(CCN(C)C)C(=O)[C@@H]2CC(C)=O)cc1", "logP": 2.7}
{"compound structure string": "COc1ccc([C@@H]2Cc3cc(Sc4ccccc4)ccc3N(CCN(C)C)C(=O)[C@@H]2OC(C)=O)cc1", "logP": 3.8}
{"compound structure string": "COc1ccc([C@@H]2Cc3cc(SC)ccc3N(CCN(C)C)C(=O)[C@@H]2OC(C)=O)cc1", "logP": 2}

*Q* Could you share which logP value was measured for CCOC(=O)c1cccc2c1C[C@@H](c1ccc(OC)cc1)[C@@H](OC(C)=O)C(=O)N2CCN(C)C ?
*A* 2.2

*Q* Then what about the molecule COc1ccc([C@@H]2Cc3c(C)cccc3N(CCN(C)C)C(=O)[C@@H]2OC(C)=O)cc1 ?
*A* 1.7

====

Target: Voltage-gated L-type calcium channel (Rattus norvegicus, UniProt P22002+Q02485+P27732)
Experiment: Percentage decrease in blood pressure at a dose of 135 uM/kg for 6-12 hr in spontaneously hypertensive rats.
Type: functional, tissue-based
readout: Decrease in blood pressure
Please give the number followed by its unit.

*Q* Voltage-gated L-type calcium channel (Rattus norvegicus, UniProt P22002+Q02485+P27732) / Decrease in blood pressure / C#CCN(C)CCN1C(=O)[C@H](OC(C)=O)[C@H](c2ccc(OC)cc2)Cc2c1cccc2C(F)(F)F : value?
*A* 25%

====

Molecular target: Voltage-gated L-type calcium channel (Rattus norvegicus, UniProt P22002+Q02485+P27732)
Assay: Percentage decrease in blood pressure at a dose of 135 uM/kg for 6-12 hr in spontaneously hypertensive rats.
Format: functional, tissue-based
fulfilled means recorded Decrease in blood pressure is 10% or above; not fulfilled means it is below 10%.

Study these solved cases before continuing.
{"compound structure string": "COc1cccc([C@@H]2Cc3cc(Cl)ccc3N(CCN(C)C)C(=O)[C@@H]2OC(C)=O)c1", "label class": "not fulfilled"}
{"compound structure string": "C=CC[C@H]1C(=O)N(CCN(C)C)c2ccccc2C[C@H]1c1ccc(OC)cc1", "label class": "fulfilled"}
{"compound structure string": "CCC[C@H]1C(=O)N(CCN(C)C)c2cccc(C(F)(F)F)c2C[C@H]1c1ccc(OC)cc1", "label class": "fulfilled"}
{"compound structure string": "COc1ccc([C@@H]2Cc3c(OC)cccc3N(CCN(C)C)C(=O)[C@@H]2OC(C)=O)cc1", "label class": "not fulfilled"}
{"compound structure string": "COc1ccc([C@@H]2Cc3ccccc3N(CCN(C)C)C(=O)[C@@H]2C)cc1", "label class": "not fulfilled"}
{"compound structure string": "COc1ccc([C@@H]2Cc3cc(C(F)(F)F)ccc3N(CCN(C)C)C(=O)[C@@H]2OC(C)=O)cc1", "label class": "fulfilled"}
{"compound structure string": "COc1ccc([C@@H]2Cc3cc(Cl)ccc3N(CCN(C)C)C(=O)[C@@H]2OC(C)=O)cc1", "label class": "fulfilled"}
{"compound structure string": "COc1ccc([C@@H]2Cc3c(C#N)cccc3N(CCN(C)C)C(=O)[C@@H]2OC(C)=O)cc1", "label class": "not fulfilled"}

*Q* Test whether the compound COc1ccc([C@@H]2Cc3ccccc3N(CCN(C)C)C(=O)[C@@H]2OC(C)=O)cc1 records Decrease in blood pressure of 10% or higher.
*A* not fulfilled

====

Target: Voltage-gated L-type calcium channel (Rattus norvegicus, UniProt P22002+Q02485+P27732)
Assay: Percentage decrease in blood pressure at a dose of 135 uM/kg for 6-12 hr in spontaneously hypertensive rats.
Assay type: functional, tissue-based
Each item that follows carries a reported Decrease in blood pressure.
Report only the number, with the unit % understood.

Examples with answers:
{"compound structure string": "CCC[C@H]1C(=O)N(CCN(C)C)c2ccccc2C[C@H]1c1ccc(OC)cc1", "unit info": "%", "Decrease in blood pressure": 11}
{"compound structure string": "COc1ccc([C@@H]2Cc3cc(Oc4ccccc4)ccc3N(CCN(C)C)C(=O)[C@@H]2OC(C)=O)cc1", "unit info": "%", "Decrease in blood pressure": 12}

Now take the following compound into account.
*Q* Given the entry COc1ccc([C@@H]2Cc3cc(SC(C)(C)C)ccc3N(CCN(C)C)C(=O)[C@@H]2OC(C)=O)cc1 , report its measured Decrease in blood pressure.
*A* 11
